The reported numbers originate from the supplement of paper PMC9170038.

# Tested on: MS2 coat protein
# TEST METHOD NOTES: apparent KD of MS2 coat protein; designed switch direction (-1 OFF switch, 1 ON switch): -1; higher = weaker reporter binding
# EXPERIMENTAL CONTEXT: input ligand: FMN 200 uM
MEASUREMENT KIND: apparent KD of MS2 coat protein (nM)

* UUGUGCACGCUGCGAUCCUACAUGAGGAUCACCCAUGUGGUCUGGUGGCGUGGGUCACCGGACUUGGCUCGUCUUGA [salish99_S_TOV1_R5_068] (Eterna round: R97, puzzle: Sensor, turn-off variant 1) | 118
* UCCUUAUCGGUCAGGAUAUACACCCGUUUCUCCUUGUAGAAGGGACAUGAGGAUCACCCAUGUACAGUACAUUU [alecazam66] (Eterna round: R97, puzzle: Brourd's mod of Exclusion 4) | 29.6
